Test: Stability in human plasma assessed as compound remaining at 100 uM measured immediately by LC-MS/MS analysis
Type: ADME, cell-free
Conditions: read-out: Stability
experimental endpoint: remaining at 0 min, 100 µM (%)

For this molecule ( `O=C(Nc1cc(Cl)cc(Cl)c1)c1nc(-c2cccc(Cl)c2)cs1` ), measured remaining at 0 min, 100 µM is 100

Form field remaining at 0 min, 100 µM, entry `N#Cc1ccc(-c2csc(C(=O)Nc3cc(Cl)cc(Cl)c3)n2)cc1` : 100

Briefly, remaining at 0 min, 100 µM measured for `N#Cc1ccc(-c2csc(C(=O)Nc3ccc(C(F)(F)F)cc3)n2)cc1` : 100

* * *

Target: CYP2C8 (Homo sapiens, UniProt P10632)
Sequence (P10632 whole entry): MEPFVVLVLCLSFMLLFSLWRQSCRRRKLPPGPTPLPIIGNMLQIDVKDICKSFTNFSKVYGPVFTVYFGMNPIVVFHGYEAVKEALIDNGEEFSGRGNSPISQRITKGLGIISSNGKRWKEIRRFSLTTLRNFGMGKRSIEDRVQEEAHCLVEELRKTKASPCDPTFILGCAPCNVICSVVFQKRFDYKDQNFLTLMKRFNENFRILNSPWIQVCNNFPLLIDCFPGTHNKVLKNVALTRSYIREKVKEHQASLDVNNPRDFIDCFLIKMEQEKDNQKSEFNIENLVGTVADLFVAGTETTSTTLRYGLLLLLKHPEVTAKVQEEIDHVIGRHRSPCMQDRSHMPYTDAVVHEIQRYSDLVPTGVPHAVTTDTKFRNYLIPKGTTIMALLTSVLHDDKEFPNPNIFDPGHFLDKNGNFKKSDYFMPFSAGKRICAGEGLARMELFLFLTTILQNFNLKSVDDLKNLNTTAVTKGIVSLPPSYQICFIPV
Experiment: Inhibition of CYP2C8 in human liver microsome at 10 uM pre-incubated with compound for 5 mins followed NADPH addition and measured after 5 mins by LC-MS/MS analysis relative to control
Format: ADME
Conditions: liver microsomes, time 10 min
experimental endpoint: inhibition at 5 min, 10 µM (%)

Record `O=C(Nc1cc(Cl)cc(Cl)c1)c1nc(-c2cccc(Cl)c2)cs1` ; system CYP2C8 (Homo sapiens, UniProt P10632); inhibition at 5 min, 10 µM = 15.7

[P] N#Cc1ccc(-c2csc(C(=O)Nc3ccc(C(F)(F)F)cc3)n2)cc1
[Q] N#Cc1ccc(-c2csc(C(=O)Nc3cc(Cl)cc(Cl)c3)n2)cc1
Select one. Lower inhibition at 5 min, 10 µM: P or Q Choose, then provide that item's label. Q
(Q: 0%, P: 33.6%)

* * *

Each entry below carries its reported IC50 at 48 h.
Experiment: Cytotoxicity against HUVEC assessed as inhibition of cell viability incubated for 48 hrs by CellTiter Glo assay
Format: toxicity, cell-based
Conditions: human, HUVEC cells

Reported IC50 at 48 h of `N#Cc1ccc(-c2csc(C(=O)Nc3cc(Cl)cc(Cl)c3)n2)cc1` : > 40 µM

The molecule `COc1cc(/C=C/c2ccc(OC)cc2OC)cc(OC)c1` showed IC50 at 48 h equal to > 40 µM

Others:
Entry under test: `O=C(Nc1cc(Cl)cc(Cl)c1)c1nc(-c2cccc(Cl)c2)cs1` . Its IC50 at 48 h was > 40 µM

Form field IC50 at 48 h, entry `N#Cc1ccc(-c2csc(C(=O)Nc3ccc(C(F)(F)F)cc3)n2)cc1` : > 40 µM
